- test protocol: photoluminescence quantum yield (fraction); solvent given as SMILES
- study conditions: in CN(C)C=O
# photoluminescence quantum yield per record follows
Answer field: number only, no words.

chemical_structure=CCN(CC)c1ccc(-c2nc(Oc3ccc(-c4nc5ccc(Cl)cc5o4)cc3)nc(Oc3ccc(-c4nc5ccc(Cl)cc5o4)cc3)n2)cc1 measurement=0.0179
chemical_structure=O=C(c1ccc(N(c2ccccc2)c2ccccc2)cc1)[C@H]1[C@H](c2ccccc2)C[C@](O)(c2ccccn2)C[C@]1(O)c1ccccn1 measurement=0.03
chemical_structure=CCCCCCC(CCCCCC)N1C(=O)c2cccc3c(-c4ccc(OC)c5ccccc45)ccc(c23)C1=O measurement=0.13
chemical_structure=CCN(CC)c1ccc2c(c1)oc(=O)c1c(C)nc3c(c(-c4ccccc4)nn3C)c12 measurement=0.483
chemical_structure=Cc1c2ccccc2c(C2=C3C=CC=[N+]3[B-](F)(F)n3cccc32)c2ccccc12 measurement=0.002
chemical_structure=CN(C)c1cc(C#N)c(N(C)C)c(C#N)c1 measurement=0.57
chemical_structure=COc1ccc(-c2csc(/C(C#N)=C/c3ccncc3)n2)cc1 measurement=0.016
chemical_structure=Cc1cc(-c2ccc(-c3ccccc3)cc2)nc(-c2ccc(-n3c4ccccc4c4ccccc43)cc2)n1 measurement=0.24

Given the compound Cn1c(/C=C/c2ccc(/C=C/c3nc4ccccc4[nH]3)cc2)[n+](C)c2ccccc21 , write its reported photoluminescence quantum yield.
0.12

Given the compound CCOC(=O)CN(CC(=O)OCC)c1ccc(-c2cc(-c3ccccn3)nc(-c3ccccn3)c2)cc1 , write its reported photoluminescence quantum yield.
0.31

Given the compound c1ccc(-c2nn(-c3ccccc3)c3nc4ccccc4cc23)cc1 , write its reported photoluminescence quantum yield.
0.78

Given the compound CCn1c2ccccc2c2cc(C#Cc3cc(C#Cc4ccc5c(c4)c4ccccc4n5CC)ncn3)ccc21 , write its reported photoluminescence quantum yield.
0.68

Data provenance is the Deep4Chem optical property database.
